Tested on: U2OS
procedure-summary: cell viability relative to DMSO; higher = less toxic
recorded-conditions: 72 h; 1 nM
property: cell viability

Known results for compounds:
[
  {
    "compound": "C[C@@H]1C[C@H]2[C@@H]3C[C@H](F)C4=CC(=O)C=C[C@]4(C)[C@@]3(F)[C@@H](O)C[C@]2(C)[C@@]1(O)C(=O)CO",
    "cell viability": "96.6%"
  },
  {
    "compound": "c1ccc([C@@H]2C[C@H]2NC2CCNCC2)cc1",
    "cell viability": "102%"
  },
  {
    "compound": "Cc1cncc(CN2CCC(=C3c4ccc(Cl)cc4CCc4cccnc43)CC2)c1",
    "cell viability": "101%"
  },
  {
    "compound": "C[C@@H]1CC(=O)NN=C1c1ccc(NN=C(C#N)C#N)cc1",
    "cell viability": "99%"
  }
]

Now consider the entry below.
State the recorded cell viability for this entry: CCOC(=O)C1=C(C)NC(C)=C(C(=O)OC)[C@@H]1c1cccc([N+](=O)[O-])c1 (racemic)
98.5%

* * *

Listed next: entries and their corresponding cell viability.
Tested on: U2OS
procedure-summary: cell viability relative to DMSO; higher = less toxic
recorded-conditions: 72 h; 1000 nM
Value expressed in %; do not type the unit.

Known results for compounds:
[
  {
    "compound": "Nc1ccccc1NC(=O)c1ccc(CNc2nccc(-c3cccnc3)n2)cc1 [mocetinostat]",
    "readout-unit": "%",
    "cell viability": 64.2
  },
  {
    "compound": "C[C@H](Cc1ccc2c(c1)OC(C(=O)O)(C(=O)O)O2)NC[C@H](O)c1cccc(Cl)c1",
    "readout-unit": "%",
    "cell viability": 99
  },
  {
    "compound": "CC1=C(/C=C/C(C)=C/C=C/C(C)=C/C(=O)Nc2ccc(O)cc2)C(C)(C)CCC1 [fenretinide]",
    "readout-unit": "%",
    "cell viability": 104
  },
  {
    "compound": "CCOC(=O)C1=C(C)NC(C)=C(C(=O)OC)[C@@H]1c1cccc([N+](=O)[O-])c1 (racemic) [nitrendipine]",
    "readout-unit": "%",
    "cell viability": 95.4
  },
  {
    "compound": "O=C(Nc1cc(C(F)(F)F)cc(C(F)(F)F)c1)c1cnc(Cl)nc1C(F)(F)F",
    "readout-unit": "%",
    "cell viability": 99.9
  }
]

State the recorded cell viability for this entry: COc1cc([C@@H]2c3cc4c(cc3[C@@H](O[C@@H]3O[C@@H]5CO[C@@H](C)O[C@H]5[C@H](O)[C@H]3O)[C@H]3COC(=O)[C@H]23)OCO4)cc(OC)c1O [etoposide]
94.5

Same question for Cc1c(C)c2c(c(C)c1OC(=O)CCC(=O)OCCO)CC[C@@](C)(CCC[C@H](C)CCC[C@H](C)CCCC(C)C)O2 [tocofersolan] please.
98.4

Same question for CC1(C)CCC(C)(C)c2cc(Cn3cccn3)c(/C=C/c3ccc(C(=O)O)cc3)cc21 [palovarotene] please.
94

Same question for CSCC[C@H](NC(=O)[C@H](CC(C)C)NC(=O)[C@@H](Cc1c[nH]c2ccccc12)NC(=O)[C@H](Cc1ccccc1)N(C)C(=O)[C@@H](Cc1c[nH]c2ccccc12)NC(=O)[C@@H](N)CCCNC(=N)N)C(N)=O [antagonist-g] please.
97

Same question for CC(=O)OC[C@H](N)C(=O)O [O-acetyl-L-serine] please.
105

Same question for `COc1ccc(NS(=O)(=O)c2ccc(I)cc2)cc1N1CCN(C)CC1` please.
99.8

Same question for CCn1c(=O)/c(=C2\Sc3ccccc3N2C)s/c1=C\c1cccc[n+]1CC [MKT-077] please.
94.3

Same question for FC(F)(F)c1ccc(CNc2ccc(Cc3c[nH]c4ncc(Cl)cc34)cn2)cn1 [pexidartinib] please.
102

Same question for C[C@H](Nc1ncnc2[nH]cnc12)c1nc2ccc(F)cc2c(=O)n1-c1ccccc1 [acalisib] please.
99.4

Same question for CC(C)[C@@H](CN1CC[C@@](C)(c2cccc(O)c2)[C@@H](C)C1)NC(=O)[C@H]1Cc2ccc(O)cc2CN1 [JDTic] please.
101

* * *

Listed next: entries and their corresponding drug-induced phospholipidosis.
Test system: A549-ACE2
procedure-summary: drug-induced phospholipidosis relative to tamoxifen; higher = more phospholipidosis
recorded-conditions: 0.833333 µM; 24 h
Value expressed in %; do not type the unit.

Known results for molecules:
[
  {
    "molecule": "COc1ccc2cc(-c3nc(-c4ccc([S+](C)[O-])cc4)[nH]c3-c3ccncc3)ccc2c1 (centres undefined)",
    "readout-unit": "%",
    "drug-induced phospholipidosis": 4.27
  },
  {
    "molecule": "Cc1[nH]c(/C=C2\\C(=O)Nc3ccc(S(=O)(=O)Cc4c(Cl)cccc4Cl)cc32)c(C)c1C(=O)N1CCC[C@@H]1CN1CCCC1",
    "readout-unit": "%",
    "drug-induced phospholipidosis": 33
  }
]

State the recorded drug-induced phospholipidosis for this entry: `CCCCCCCCc1ccc(CCC(N)(CO)CO)cc1`
18.8

Same question for `CC(C)C[C@H](NC(=O)CNC(=O)c1cc(Cl)ccc1Cl)B1OC(=O)C(CC(=O)O)(CC(=O)O)O1` please.
-2.83

* * *

System: Vero E6
procedure-summary: cell viability relative to DMSO; higher = less toxic
recorded-conditions: 72 h; 10 nM
property: cell viability (%)
Value expressed in %; do not type the unit.

Known results for compounds:
[
  {
    "compound": "Cc1c(Cl)cccc1S(=O)(=O)Nc1nc(NCCc2ccccc2)nc2c1CN(Cc1ccccc1)CC2 [CaMKII-IN-1]",
    "readout-unit": "%",
    "value-measured": 104
  },
  {
    "compound": "COc1ccc(N2CCOCC2)c2sc(NC(=O)N3CCC(C)(O)CC3)nc12 [tozadenant]",
    "readout-unit": "%",
    "value-measured": 106
  },
  {
    "compound": "CC(O)c1cc(C(=O)N[C@@H](C)Cn2ccc(-c3ccc(C#N)c(Cl)c3)n2)n[nH]1 (some centres undefined) [ODM-201]",
    "readout-unit": "%",
    "value-measured": 101
  },
  {
    "compound": "N#Cc1ncccn1 [2-cyanopyrimidine]",
    "readout-unit": "%",
    "value-measured": 104
  },
  {
    "compound": "Cc1cc(C)cc(C(=O)O[C@H]2C[C@H]3CC[C@@H](C2)N3C)c1 [tropanyl-3,5-dimethylbenzoate]",
    "readout-unit": "%",
    "value-measured": 94.3
  },
  {
    "compound": "NCCC(O)(P(=O)(O)O)P(=O)(O)O [pamidronate]",
    "readout-unit": "%",
    "value-measured": 94.8
  },
  {
    "compound": "COc1nccc(-c2c(-c3ccc(F)cc3)ncn2C2CCNCC2)n1",
    "readout-unit": "%",
    "value-measured": 97
  },
  {
    "compound": "CC(C)(C=O)Cc1cc(C(C)(C)C)c(O)c(C(C)(C)C)c1",
    "readout-unit": "%",
    "value-measured": 97.8
  },
  {
    "compound": "CC[N+](C)(CC)CCOC(=O)C(O)(c1ccccc1)C1CCCCC1 (centres undefined) [oxyphenonium]",
    "readout-unit": "%",
    "value-measured": 97.2
  },
  {
    "compound": "CC(C)CNc1ccnc(NCc2csc(-c3ccccc3)n2)n1 [KHS-101]",
    "readout-unit": "%",
    "value-measured": 99
  }
]

State the recorded cell viability for this entry: O=S1(=O)c2cccc3cccc(c23)N1CCCN1CCN(c2ccc(F)cc2)CC1 [fananserin]
96.9

Same question for O=CN1CCC(C(=O)NCCN2CCC(=C3c4ccccc4C=Cc4ccccc43)CC2)CC1 [AT-1015] please.
108

Same question for NC(=O)CN1Cc2ccccc2OC1=O [caroxazone] please.
99.8

Same question for COc1ccc2cc3[n+](cc2c1OC)CCc1cc2c(cc1-3)OCO2 [berberine] please.
93

* * *

Test system: HepG2
procedure-summary: cell viability relative to DMSO; higher = less toxic
recorded-conditions: 72 h; 100 nM
Counter-ions that a name gives are not always drawn.
property: cell viability (%)
Value expressed in %; do not type the unit.

Known results for molecules:
[
  {
    "molecule": "CCSC(=N)N [EIT-hydrobromide]",
    "tgt": "HepG2",
    "property": "cell viability",
    "value-measured": 94.3
  },
  {
    "molecule": "N#Cc1ncccn1 [2-cyanopyrimidine]",
    "tgt": "HepG2",
    "property": "cell viability",
    "value-measured": 93.7
  },
  {
    "molecule": "CCCC[C@H]1C(=O)N(c2ccccc2)N(c2ccc(O)cc2)C1=O [oxyphenbutazone]",
    "tgt": "HepG2",
    "property": "cell viability",
    "value-measured": 105
  },
  {
    "molecule": "C=C1/C(=C\\C=C2/CCC[C@]3(C)[C@@H]([C@H](C)/C=C/[C@H](C)C(C)(C)O)CC[C@@H]23)C[C@@H](O)C[C@@H]1O [ercalcitriol]",
    "tgt": "HepG2",
    "property": "cell viability",
    "value-measured": 104
  },
  {
    "molecule": "Nc1nc(N)nc(NC2CC2)n1 [cyromazine]",
    "tgt": "HepG2",
    "property": "cell viability",
    "value-measured": 99.8
  },
  {
    "molecule": "C1=Cc2cccc(OCC3CNCCO3)c2C1 (stereo not drawn) [indeloxazine]",
    "tgt": "HepG2",
    "property": "cell viability",
    "value-measured": 104
  },
  {
    "molecule": "CC(C)CNc1ccnc(NCc2csc(-c3ccccc3)n2)n1 [KHS-101]",
    "tgt": "HepG2",
    "property": "cell viability",
    "value-measured": 95.3
  },
  {
    "molecule": "CC(=O)O[C@H]1Cc2ccccc2N(C(N)=O)c2ccccc21 [eslicarbazepine-acetate]",
    "tgt": "HepG2",
    "property": "cell viability",
    "value-measured": 95.9
  },
  {
    "molecule": "COc1cc2nc(C3CC3)nc(N3CCN(c4ccccc4OC)CC3)c2cc1OC [ML314]",
    "tgt": "HepG2",
    "property": "cell viability",
    "value-measured": 100
  },
  {
    "molecule": "Cc1onc(-c2ccccc2)c1-c1ccc(S(N)(=O)=O)cc1 [valdecoxib]",
    "tgt": "HepG2",
    "property": "cell viability",
    "value-measured": 97.5
  }
]

State the recorded cell viability for this entry: CC(C)CCNC(=O)[C@H](CC(C)C)NC(=O)[C@H]1O[C@@H]1C(=O)O [loxistatin-acid]
104

Same question for CNC(=O)[C@@H](NC(=O)[C@H](CC(C)C)[C@H](O)C(=O)NO)C(C)(C)C [marimastat] please.
121

Same question for CCN(C(C)=O)c1cccc(-c2ccnc3c(C#N)cnn23)c1 [ZALEPLON] please.
91

Same question for N[C@@H](C(=O)N[C@@H]1C(=O)N2C(C(=O)O)=C(Cl)CC[C@H]12)c1ccccc1 [loracarbef] please.
96.3

Same question for O=C(Nc1ccc(N2CCC(C(=O)N3CCOCC3)CC2)cc1)c1cnc(Oc2ccccc2)nc1 [TFC-007] please.
101

Same question for C[C@H](Nc1ncnc2[nH]cnc12)c1nc2ccc(F)cc2c(=O)n1-c1ccccc1 [acalisib] please.
109

Same question for CC(CN(C)C)C(C)(O)Cc1ccc(Cl)cc1 (stereo not drawn) [clobutinol] please.
105

Same question for CC(C)=CCC[C@]1(C)C=Cc2c(O)c3c(c(CC=C(C)C)c2O1)O[C@]12C(=C[C@@H]4C[C@H]1C(C)(C)O[C@@]2(C/C=C(/C)C(=O)O)C4=O)C3=O [gambogic-acid] please.
99.3

The measured values listed here are drawn from the supplement of paper PMC13380429.
